tested on: CP329; assay: qHTS profiling for inhibitors of Plasmodium falciparum proliferation (AID 504749); further: nearly all actives have a fitted effect of over 60% in size; further: potency means the concentration at half of the fitted maximal effect; conditions: P. falciparum in erythrocytes, SYBR Green DNA, 72 h; series mostly up to 28.7 µM
Results filed as inconclusive are left out. Calls of active or inactive are those of the source. The call rests on the fitted dose curve; in most records, active means well fitted inhibition curve with a large enough effect; inconclusive means small, poorly fitted or top-dose-only effect; inactive means flat fitted curve, though single readings scatter.
outcome_measure: Potency

Solved entries (count: 6):
{"compound": "O=S(=O)(O)c1cc(O)c2c(N=Nc3ccc(Nc4ccccc4)c4c(S(=O)(=O)O)cccc34)cc(S(=O)(=O)O)cc2c1", "val": "inactive"}
{"compound": "CO[C@H]1C[C@@H]2CC[C@@H](C)[C@@](O)(O2)C(=O)C(=O)N2CCCC[C@H]2C(=O)O[C@H]([C@H](C)C[C@@H]2CC[C@@H](OCCO)[C@H](OC)C2)CC(=O)[C@H](C)/C=C(\\C)[C@@H](O)[C@@H](OC)C(=O)[C@H](C)C[C@H](C)/C=C/C=C/C=C/1C", "val": "4.78 µM (active)"}
{"compound": "CC1=C(/C=C/C(C)=C/C=C/C(C)=C/C=C/C=C(C)/C=C/C=C(C)/C=C/C2=C(C)C(=O)CCC2(C)C)C(C)(C)CCC1=O", "val": "inactive"}
{"compound": "CC1=CCC(C(C)(C)O)CC1 (centres undefined)", "val": "inactive"}
{"compound": "NC(=O)c1ncn(C2OC(CO)C(O)C2O)n1 (centres undefined)", "val": "inactive"}
{"compound": "CC(C)=O", "val": "inactive"}

Ask: Need Potency of CCNC(=O)[C@@H]1CCCN1C(=O)[C@H](CCCN=C(N)N)NC(=O)[C@H](CC(C)C)NC(=O)[C@@H](Cc1c[nH]c2ccccc12)NC(=O)[C@H](Cc1ccc(O)cc1)NC(=O)[C@H](CO)NC(=O)[C@H](Cc1c[nH]c2ccccc12)NC(=O)[C@H](Cc1cnc[nH]1)NC(=O)[C@@H]1CCC(=O)N1 , thanks.
Result: 8.49 µM (active)

Ask: Need Potency of CC(C(=O)O)c1ccc(N2Cc3ccccc3C2=O)cc1 (centres undefined) , thanks.
Result: inactive

Ask: Need Potency of CCCCCCCCCCCCCC[n+]1ccc(C)cc1 , thanks.
Result: 4.26 µM (active)
